# procedure.details: 2-methoxy ethanol dose in the subject's exhalation
# Format: in vivo
# measurement.context: human, exhaled air, topical or ocular; of the total absorbed dose; read-out: 2-methoxy ethanol doses in the subject's exhalation, share of total absorbed dose

{"structure": "COCCO", "dose excreted": "< 0.4%"}

----------
# procedure.details: Absorbed dose of vapor by skin of an arm in feedback-controlled exposure chamber, six voluntary subjects (Embodiment 1, 300±10 ppm)
# Format: in vivo, human
# measurement.context: human, topical or ocular, 300±10 ppm vapor; mean of six subjects; read-out: permeability constant, mean (converted)
endpoint.label: Papp (×10⁻⁶ cm/s)

{"compound": "COCCO [2-methoxy ethanol]", "unit.string": "×10⁻⁶ cm/s", "measured": 3890}

Origin of the recorded values: patent US5984868A
